These data points were gathered from ChEMBL document CHEMBL4325925.

target: Homeodomain-interacting protein kinase 2 (Homo sapiens, UniProt Q9H2X6); experiment: Inhibition recombinant human HIPK2 (165 to 564 residues) after 5 mins in presence of [33P] ATP by Topcount method
Sequence (Q9H2X6 whole entry, the tested form may be a part): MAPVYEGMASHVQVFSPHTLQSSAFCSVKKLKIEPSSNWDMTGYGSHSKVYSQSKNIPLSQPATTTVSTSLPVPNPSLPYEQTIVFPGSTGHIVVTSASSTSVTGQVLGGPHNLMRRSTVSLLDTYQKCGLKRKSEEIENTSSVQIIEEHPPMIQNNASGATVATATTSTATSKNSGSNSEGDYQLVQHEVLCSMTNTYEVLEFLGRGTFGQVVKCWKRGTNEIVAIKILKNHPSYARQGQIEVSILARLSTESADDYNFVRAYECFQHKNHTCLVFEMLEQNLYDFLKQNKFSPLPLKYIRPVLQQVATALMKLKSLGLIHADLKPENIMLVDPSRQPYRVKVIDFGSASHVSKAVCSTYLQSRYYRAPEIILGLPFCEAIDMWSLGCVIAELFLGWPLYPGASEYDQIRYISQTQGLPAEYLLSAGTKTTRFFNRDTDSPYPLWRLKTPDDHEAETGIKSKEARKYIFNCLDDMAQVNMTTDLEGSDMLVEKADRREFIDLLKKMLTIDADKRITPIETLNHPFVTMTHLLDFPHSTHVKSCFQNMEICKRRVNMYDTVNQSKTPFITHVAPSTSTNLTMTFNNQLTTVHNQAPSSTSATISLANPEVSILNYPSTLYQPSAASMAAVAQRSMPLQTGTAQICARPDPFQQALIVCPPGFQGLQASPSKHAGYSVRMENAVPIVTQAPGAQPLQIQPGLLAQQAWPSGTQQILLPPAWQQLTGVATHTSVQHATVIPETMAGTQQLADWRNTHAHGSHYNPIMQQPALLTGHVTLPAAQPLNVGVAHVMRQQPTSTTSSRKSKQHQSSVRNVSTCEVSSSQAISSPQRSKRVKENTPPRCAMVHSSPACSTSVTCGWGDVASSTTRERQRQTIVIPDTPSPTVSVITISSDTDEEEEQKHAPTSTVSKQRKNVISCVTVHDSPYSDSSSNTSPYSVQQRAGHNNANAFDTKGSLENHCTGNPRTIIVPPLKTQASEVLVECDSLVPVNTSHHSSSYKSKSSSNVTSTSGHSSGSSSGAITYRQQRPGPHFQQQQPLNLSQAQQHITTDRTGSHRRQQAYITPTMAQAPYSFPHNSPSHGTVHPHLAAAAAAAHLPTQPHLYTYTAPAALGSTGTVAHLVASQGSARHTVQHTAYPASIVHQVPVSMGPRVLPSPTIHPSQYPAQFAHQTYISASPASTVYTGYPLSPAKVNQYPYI
measured endpoint: IC50 (nM)
All answers are understood in nM, so give the number only.

Which IC50 reading was recorded for the molecule c1cnc2ncn(-c3cc(Nc4ccc(OCCN5CCCCC5)cn4)ncn3)c2c1 ?
30

----------
target: Serine/threonine-protein kinase B-raf (Homo sapiens, UniProt P15056); experiment: Inhibition of recombinant human full length GST-tagged BRAF expressed in baculovirus expression system
Sequence (P15056 whole entry): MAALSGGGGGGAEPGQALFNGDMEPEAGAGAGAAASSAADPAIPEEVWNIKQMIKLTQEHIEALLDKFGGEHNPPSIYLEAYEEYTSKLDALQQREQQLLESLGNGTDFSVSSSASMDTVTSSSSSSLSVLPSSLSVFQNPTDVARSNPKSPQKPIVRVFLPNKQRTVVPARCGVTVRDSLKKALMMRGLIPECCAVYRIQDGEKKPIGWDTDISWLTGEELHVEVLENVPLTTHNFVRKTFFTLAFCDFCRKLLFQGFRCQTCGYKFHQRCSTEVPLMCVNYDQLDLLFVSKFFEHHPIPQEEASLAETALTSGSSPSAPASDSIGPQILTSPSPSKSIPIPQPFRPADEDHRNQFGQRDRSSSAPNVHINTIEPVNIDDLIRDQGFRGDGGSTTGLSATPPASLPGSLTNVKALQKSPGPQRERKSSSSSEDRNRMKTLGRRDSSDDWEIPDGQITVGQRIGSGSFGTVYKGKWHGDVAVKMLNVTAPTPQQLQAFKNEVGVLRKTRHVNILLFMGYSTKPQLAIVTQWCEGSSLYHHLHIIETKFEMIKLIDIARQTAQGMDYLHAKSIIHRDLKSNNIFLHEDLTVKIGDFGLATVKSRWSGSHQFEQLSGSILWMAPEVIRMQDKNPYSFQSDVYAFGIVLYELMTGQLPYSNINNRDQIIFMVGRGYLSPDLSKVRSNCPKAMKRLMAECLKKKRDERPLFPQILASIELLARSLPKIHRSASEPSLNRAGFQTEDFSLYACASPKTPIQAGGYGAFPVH
measured endpoint: pIC50
// pIC50: -log10(molar conc.)

Which pIC50 reading was recorded for the molecule N#Cc1c(Oc2ccc(F)c(NC(=O)Cc3cccc(C(F)(F)F)c3)c2)ccc2nc(NC(=O)C3CC3)sc12 ?
8.10
